Consider molecules characterized by their induction of CYP3A23 cellular promoter reporter with rat CYP3A23 gene cellular promoter.
PROPERTY_LABEL: induction of CYP3A23 cellular promoter reporter

Clc1ccccc1C(c1ccccc1)(c1ccccc1)n1ccnc1 [CTZ, clotrimazole]: significant induction
CCC1(c2ccccc2)C(=O)NC(=O)NC1=O [phenobarbital]: significant induction
CC(=O)[C@H]1CC[C@H]2[C@@H]3CC=C4C[C@@H](O)CC[C@]4(C)[C@H]3CC[C@]12C [pregnenolone]: significant induction
C[C@]12CC[C@@H]3c4ccc(O)cc4CC[C@H]3[C@@H]1CC[C@@H]2O [estradiol, 17β-estradiol]: significant induction

* * *

tested on: SXR; assay: Activation of SXR in transfection-based assays; settings: series of transfections
PROPERTY_LABEL: SXR activation of DR-3, DR-4 and DR-5 elements

C[C@]12CCC(=O)C=C1CC[C@@H]1[C@@H]2[C@@H](O)C[C@@]2(C)[C@H]1CC[C@]2(O)C(=O)CO: little response
C[C@]12CCC(=O)C=C1CC[C@@H]1[C@@H]2[C@@H](O)C[C@]2(C=O)[C@@H](C(=O)CO)CC[C@@H]12: little response
